Target: sPLA2
Conditions: read-out: Ki values (all cases); venom-derived sPLA2 group I and plasma of rats and humans
Endpoint: Ki

Dear colleague, please send me the reported Ki for CHEASAAQC [CHEC-9] when you can.
< 0.1 µM

# credit: paper PMC1624820
